Tested on: HS 578T breast
Assay: NCI-60 one-dose screen, 48 h (100 = growth as untreated, 0 = no growth, -100 = all killed)
Details: 10 µM unless noted
This is part of a sample that, as a whole, favours compounds with a hit. Of some 83,000 tested, about 20% had one in any assay.
assay-endpoint: growth (%)
Answer format: numeric, % implied, no suffix.

Give the measured growth of COc1ccc(N2C(=O)CC(c3cc(OC)c(OC)c(OC)c3)C3C2=NC(=O)N3C)cc1 (stereo unspecified) .
97.1

Fill blank: measured growth of the molecule "CN(O)c1nc(N(C)O)nc(N2CCOCC2)n1" is ____.
75.9

So what's the measured growth for this one? "CCCCc1c(CCC)c(=N)c2ccccc2n1C"
122

# input molecule: "Cn1c(/C=C(\C#N)c2ccccc2)nc2c(N3CCOCC3)nc(Cl)nc21" ; wanted: its growth
-20

Tell me the measured growth of "Nc1nc(-c2ccccc2Br)nn1-c1nc2ccccc2s1" , please.
104

Query (molecule): "COc1ccc(OC)c(N(CCN2C(=O)c3ccccc3C2=O)C(=O)CCl)c1" ; field requested: growth
52.6

Suppose we examine the molecule O=C1CCC(N2C(=O)c3cccc(NCCCCCCOc4ccc(Nc5nccc(Nc6ccccc6)n5)cc4)c3C2=O)C(=O)N1 (stereo unspecified) ; what growth value has been reported?
98.2

Give its growth value. Item: "CN1CCN(Cc2ccc(C(=O)Nc3cncc(C#Cc4cnc5cccnn45)c3)cc2C(F)(F)F)CC1"
54.8

For "COc1ccc(Nc2cc(C)nc(NCc3ccccc3)n2)cc1" , what is its reported growth?
60.5

Reported growth, molecule "CC1=C(C(=O)OCC2CCN(C(=O)OC(C)(C)C)CC2)[C@@H](c2cccc(C#N)c2)C2=C(CC(C)(C)CC2=O)N1" : ____
64.5

What does the data say about its growth? Entry: "COC(=O)c1c2c(c(C)[n+]([O-])c1C)C(=O)C=C(NCc1ccccc1)C2=O"
-30.6

For the molecule shown here, "NCCOc1ncccc1/C=C1\c2ccccc2-c2ccc(F)cc21" , give the reported growth.
44.2

What value of growth has been reported for the following molecule? COc1cc(C2CC(c3ccc(Nc4nc(NCCO)nc(N5CCOCC5)n4)cc3)=NN2c2cc(Cl)cc(Cl)c2)cc(OC)c1OC (stereo unspecified)
22.6

# query: growth of entry "COc1ccccc1N1C(=N)S/C(=C\c2ccc(OCc3ccccc3F)cc2)C1=O"
86.7

Fill blank: measured growth of the molecule "COc1ccc(-c2cn[nH]c2-c2cc(OC)c(OC)c(OC)c2)cc1OCc1ccccc1" is ____.
6.1

Tell me the measured growth of "COc1ccc(/C=C2\SC(=Nc3ccccc3)NC2=O)cc1" , please.
-47.5

Looking for the measured growth of "COC(=O)c1c2c(c(C)[n+]([O-])c1C)C(=O)C(NCc1ccc(F)c(F)c1)=CC2=O" , can you help?
80.2

Need growth of "CCOC(=O)c1cnc2ccc(Cl)cc2c1NCCCN(C)C" , thanks.
33

What does the data say about its growth? Entry: CSc1nc2c(c(=O)[nH]1)N=C1c3ccccc3C(=O)C1C(c1ccc(F)cc1)N2 (stereo unspecified)
66.8

// growth lookup, key: "O=C(/C=C/c1cccc(Cl)c1)OCc1ccc2cc1OCC#C/C=C\C#CCO2"
101

Name the recorded growth for "O=c1oc2ccc(I)cc2c(=O)n1-c1ccc(F)cc1F" .
19.8
